test: NCI Yeast Anticancer Drug Screen. Data for the bub3 strain (AID 167); conditions: S. cerevisiae bub3 mutant strain, at 33.0 µM, hits give high values
Compounds without any hit were thinned out: in the full panel of roughly 79,000, 15% have a hit.
# key: entry, value: growth inhibition
Endpoint: growth inhibition (%)

* Cc1ccc2ccc3cccc4ccc1c2c34 | 26
* CC(/C=C/c1ccc2c(c1)OCO2)[N+](=O)[O-] (stereo unspecified) | 99
* COc1cc(C2c3cc4c(cc3OC(NNc3ccccc3)C2C)OCO4)cc(OC)c1OC (stereo unspecified) | 89
* CN(C)c1ccc(Sc2ccc3nc(N)nc(N)c3c2)cc1 | -17
* CC[C@@]1(O)C(=O)OCc2c1cc1n(c2=O)Cc2cc3c(CN(C)C)c(O)ccc3nc2-1 | -14
* CC[n+]1ccc2c(C)c3[nH]c4ccc(O)cc4c3c(C)c2c1 | 3

====

experiment: NCI Yeast Anticancer Drug Screen. Data for the CLN2oe strain (AID 163);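 further: 0% = growth of vehicle-only control cultures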; details: S. cerevisiae CLN2oe strain, at 3.7 µM, hits give high values
This is part of a sample that, as a whole, favours compounds with a hit. Of some 79,000 tested, about 15% had one in any assay.
Endpoint: growth inhibition (%)

- COc1cccc2nc3ccccc3nc12: 1
- CNC1C(OC2C(OC3C(O)C(O)C(N=C(N)N)C(O)C3N=C(N)N)OC(C)C2(O)CO)OC(CO)C(O)C1O (configuration not stated): -6
- NCCNc1ccc(NCCN)c2c1C(=O)c1c(O)ccc(O)c1C2=O: 20
- COc1cc(/C=C2\CCc3ccccc3C2=O)cc(OC)c1OC: -2
- O=C(c1cc(Br)ccc1O)c1cc(Br)ccc1O: 96
- O=Nc1cccnc1N=O: 13
- Cc1cc(I)ccc1N: -15
- CC(C)C1=CCC2C(=C1)CCC1C(C)(C(=O)O)CCCC21C (configuration not stated) (tested in a mixture with another compound): 6
- CCc1ccc(NS(=O)(=O)c2ccccc2)c([N+](=O)[O-])c1: -2
- Nc1ccc2c(c1)C(=O)c1cccc(N)c1C2=O: 3
- Nc1ccccc1CC(O)C(=O)O (configuration not stated): 9
- c1ccc2c(c1)sc1nc3ccncc3nc12: 5

====

experiment: NCI Yeast Anticancer Drug Screen. Data for the rad14 strain (AID 159);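 further: 0% = growth of vehicle-treated control cultures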; details: S. cerevisiae rad14 strain growth inhibition; at 1.2 µM; hits give high values
About 79,000 compounds went through this panel and 15% of them were active in at least one assay; those are over-represented in the sample as a whole.
# key: entry, value: growth inhibition
Endpoint: growth inhibition (%)

- CCCCCCCCNC(=O)C1=C(C)NC(C)=C(C(=O)NCCCCCCCC)C1: 1
- CCCCCCCCCCCCCCCCCCNC: -22
- COc1cc2ccc(/C=C\[N+](=O)[O-])cc2cc1OC: -26
- COC(=O)CCNc1c2ccccc2nc2cccc([N+](=O)[O-])c12: 99
- COc1cc(C2SCC(=O)N2c2ccc(-c3ccc(-n4c(-c5ccccc5)nc5ccccc5c4=O)cc3)cc2)cc(OC)c1OC (configuration not stated): 0
- CC(C)(Br)C(=O)/C=C/c1ccc(Cl)c(Cl)c1: 4
- NNC(=O)CCc1ccc2ccc3ccccc3c2c1: -4
- O=[N+]([O-])c1cccc2nccc(NCCCO)c12: -9
- c1ccc2c(c1)C(=NCCCN1CCCCCC1)c1cccn1-2: -15
- Cc1ccc(N)c(S)c1: -43
- NC(=NCc1ccccc1)N/N=C\c1ccnc2ccccc12: 0
- Oc1c(Br)cc(Br)cc1C1CCCCC1: -22
- BrCc1cccc2ccc3cccc(CBr)c3c12: -2
- O=C(c1ccc(Cl)cc1)C1OC12C(=O)Nc1ccccc12 (configuration not stated): 24
- O=C(c1cc(Br)ccc1O)c1cc(Br)ccc1O: 8
- O=C(/C=C\c1ccc(Cl)cc1Cl)c1cccs1: -2
- COC(=O)C1=C(C(=O)OC)C2(C)C=CC1O2 (configuration not stated): 1
- CCC#CCCCOC(=O)c1cc([N+](=O)[O-])cc([N+](=O)[O-])c1: -5
- COc1ccc(N=C2C(=O)Nc3ccc(Br)cc32)cc1: -22
- O=C1c2ccccc2-c2nc3ccccc3nc21: -43
- CC1CCN(CCC(=O)c2ccc(Cl)cc2)CC1: 19
- CCOC(=O)c1cnc2c(C(F)(F)F)cccc2c1N=[N+]=[N-]: 3
- Cn1c(=O)c2ccccc2c2ccccc21: 0
- O=c1ssc2ncccc12: 7
- [O-][n+]1c2ccc(O)cc2nc2ccc(Cl)cc21: 0
- c1ccc2c(c1)c1ncccc1c1nccnc21: 3
- CCCCOC(=O)N[C@H]1CCc2cc(OC)c(OC)c(OC)c2-c2ccc(SC)c(=O)cc21: -1
- Oc1ccc2ccccc2c1C(c1ccc(Cl)cc1)c1c(O)ccc2ccccc12: -61
- Cc1ccc(S(=O)(=O)NC(=O)NC2=NC(C)(C)N(c3ccc(Cl)c(Cl)c3)C(N)=N2)cc1: -1
- CC(=O)OCC(=O)C1(O)CCC2C3CCC4CCCCC4(C)C3CCC21C (configuration not stated): -31
- CCOC(=O)C(NC(=O)c1ccccc1)(N1CCN(c2cc3c(cc2F)c(=O)c(C(=O)O)cn3C2CC2)CC1)C(F)(F)F (configuration not stated): 0
- CC(C)/C(Cl)=N\OC(=O)Nc1cccc(Cl)c1: 0
- NC(N)=N/N=C\c1c2ccccc2cc2ccccc12: -50
- C(CCSC1=NCCN1)CSC1=NCCN1 (tested in a mixture with another compound): 5
- CO[C@H]1C[C@](C)(O)Cc2cc3c(c(O)c21)C(=O)c1c(O)cc2c(c1C3=O)O[C@@H]1O[C@@]2(C)[C@H](O)[C@@H](N(C)C)[C@@H]1O: -32
- Clc1cccc(C(Nc2nncs2)Nc2nncs2)c1Cl: -2
- COc1cc(C2c3cc4c(cc3OC(NNc3ccccc3)C2C)OCO4)cc(OC)c1OC (configuration not stated): -2
- CCC/C(Cl)=N\OC(=O)Nc1cccc(C(F)(F)F)c1: 12
- NCCNc1ccc(NCCN)c2c1C(=O)c1c(O)ccc(O)c1C2=O: -4
- O=[N+]([O-])c1ccc(=S)[nH]c1: -5
- O=Cc1cccc2ccc3ccccc3c12: -1
- CC1(C)C(=O)OC(n2cc(F)c(=O)[nH]c2=O)C1=O (configuration not stated): -36
- CCS(=O)(=O)c1ccc(/C=C/C=N/NC(=S)NCC(C)C)cc1: 4
- CC(=O)ON1C(=O)c2cccc3cccc(c23)C1=O: 51
- Oc1cccc2c(Cl)ccnc12: 37
- Cc1c(Cl)ccc2c1S(=O)(=O)c1cccc(Cl)c1-2: 2
- CCC(C)COC(=O)c1ccc(N=Cc2ccc(C=Nc3ccc(C(=O)OCC(C)CC)cc3)cc2)cc1 (configuration not stated): -1

====

assay: NCI Yeast Anticancer Drug Screen. Data for the bub3 strain (AID 167); conditions: S. cerevisiae bub3 mutant strain, at 50.0 µM
This is part of a sample that, as a whole, favours compounds with a hit. Of some 79,000 tested, about 15% had one in any assay. Calls of active or inactive are those of the source. Cut-off read from the data, not from the text of the source: active = growth inhibition above about 70%; inactive = the rest.
Possible outcomes: t = active, f = inactive

- CN(C)CCn1c2c3ccccc3ccc2c2oc(=O)c3ccccc3c21: t
- Cn1ccnc1Oc1ccc(Cl)cc1: f
- COC(=O)C1=C(C)NC(C)=C(C(=O)OCCCN2CCC(c3ccccc3)(c3ccccc3)CC2)C1c1cccc([N+](=O)[O-])c1 (stereo unspecified): t
- Clc1ccccc1C1OC1c1ccccc1Cl (stereo unspecified): f
- COc1cc(C(=O)/C=C/c2ccccc2O)ccc1O: t
- O=C(O)C1OC1(c1cccc(Cl)c1)c1ccccc1Cl (stereo unspecified): t
- O=C(/C=C\c1ccc(Cl)cc1Cl)c1cccs1: f
- CC[C@@]1(O)C(=O)OCc2c1cc1n(c2=O)Cc2cc3c(CN(C)C)c(O)ccc3nc2-1: f
- CN1Cc2ccccc2/C=C\c2ccccc21: f
- O=C1CSC(/C=C/c2ccccc2)N1c1ccc(-c2ccc(-n3c(-c4ccccc4)nc4ccccc4c3=O)cc2)cc1 (stereo unspecified): t
- CCCCCCCCCCCCCC[N+](C)(CC(=O)[O-])Cc1ccccc1 (stereo unspecified): t

====

assay: NCI Yeast Anticancer Drug Screen. Data for the rad50EPP+ strain (AID 151);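 further: 0% = growth of vehicle-treated control cultures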; settings: S. cerevisiae rad50 mutant strain, at 33.0 µM, hits give high values
The panel holds about 79,000 compounds, 15% with a hit somewhere; the sample as a whole holds those more often. Activity calls are given as the source filed them. Rule as the data show it: active = growth inhibition above about 70%; inactive = the rest.
Endpoint: growth inhibition

• CCCCCCCCCCCCCCCCCCNC = 48% (inactive)
• OCC1OC(OCC(O)C(O)C(O)C(/C=N/Nc2ccccc2)=N/Nc2ccccc2)C(O)C(O)C1O (stereo unspecified) = 40% (inactive)
• CN(N=O)N1C(=O)SCC(c2ccccc2)(c2ccccc2)C1=O = 2% (inactive)
• CN1Cc2ccccc2/C=C\c2ccccc21 = 36% (inactive)
• O=C1OC(CCl)CN1/N=C/c1ccc([N+](=O)[O-])o1 (stereo unspecified) = 47% (inactive)
• C(=C\c1ccccc1)/COc1ccccc1C(N1CCOCC1)n1nc2ccccc2n1 (stereo unspecified) = 64% (inactive)

Reference source: PubChem BioAssay (NCI)
